src = PubChem BioAssay (NCI)

In this section, each of the compounds is paired with its reported TGI.
system: M19-MEL melanoma; assay: NCI tumour cell line growth inhibition, 48 h

Sample answers from the record:
>>> data_value("COC(=O)C(Cc1cc(OC)c(OC)c(OC)c1)c1ccc(OC)cc1 (configuration not stated)")
"> 100 µM"
>>> data_value("COC(=O)/C=C(\\C(=O)OC)c1c2c3c(cc(OC)c(OC)c3c3ccccc13)CCN2C")
"> 100 µM"
>>> data_value("CC1=CC(=C(c2ccc(N)cc2)c2ccc(N)cc2)C=CC1=N")
"14.5 µM"
>>> data_value("CC(=O)OC1CCCn2c1nc1c2C(=O)C(C)=C(N2CC2)C1=O (configuration not stated)")
"1.63 µM"
>>> data_value("COc1c(C(=O)c2ccc([N+](=O)[O-])cc2)cc(C(C)(C)C)cc1C(C)(C)C")
"> 100 µM"

Input CC1(C)Cc2c(C#N)c(N)c3c(c2CO1)C(=O)OC3=O . Output TGI: > 100 µM

Input OCC(O)C(O)C(O)c1nn(-c2ccc(Cl)cc2)c2nc3cc(Cl)c(Cl)cc3nc12 (configuration not stated) . Output TGI: > 100 µM

* * *

tested on: OVCAR-4 ovarian; assay: NCI tumour cell line growth inhibition, 48 h; in the data active means GI50 below about 0.43 µM; inactive means the rest
Write down the outcome that applies. Available outcomes: active, inactive

>>> discrete_label("CC(=O)c1cc(C(=O)c2ccc3c(c2)Sc2ccccc2N3)c2c(C)cc(C)cn12")
"inactive"

Next up:
Recorded call for COc1ccc2c(c1)[nH]c(=O)c1c3cc(OC)ccc3cn21 ?
active

* * *

system: MDA-MB-231 breast; assay: NCI tumour cell line growth inhibition, 48 h
In this section, each of the molecules is paired with its reported TGI.
Just the number please, in µM, no unit attached.

>>> data_value("C[C@]12CC/C(=N\\O)C=C1CC[C@@H]1[C@@H]2CC[C@]2(C)C(=N/O)/C(=C/c3ccc([N+](=O)[O-])cc3)C[C@@H]12")
29.6

# input for lookup
Input Cc1ccc(S(=O)(=O)N2CCSCCN(S(=O)(=O)c3ccc(C)cc3)CCN(S(=O)(=O)c3ccc(C)cc3)CC2)cc1 . Output TGI: 59.5

* * *

system: IGROV1 ovarian; experiment: NCI tumour cell line growth inhibition, 48 h
OBSERVATION TYPE: TGI

>>> data_value("CS(=O)(=O)Nc1ccc(-c2cc(-c3ccccc3)cc(C(N)=O)c2N)cc1")
"> 25 µM"
>>> data_value("CO[C@@H]1C=C[C@@]23c4cc5c(cc4C(=O)O[C@H]2CN(C)[C@H]3C1)OCO5")
"> 100 µM"

Input CC(=O)c1ccc(OCC(O)CO)cc1 (stereo not drawn) . Output TGI: > 100 µM

* * *

test system: U251 CNS; test: NCI tumour cell line growth inhibition, 48 h
OBSERVATION TYPE: TGI (µM)
Just the number please, in µM, no unit attached.

Sample answers from the record:
>>> data_value("O=C1C(=O)c2c(nc3ccc(Br)cn23)-c2ccccc21")
1.87
>>> data_value("COc1cc2nc(SCC(=O)Nc3cc(OC)c(OC)c(OC)c3)n(Cc3ccccc3)c(=O)c2cc1OC")
11.2
>>> data_value("CC(=O)OC1CCCn2c1nc1c2C(=O)C(C)=C(N2CC2)C1=O (stereo unspecified)")
0.533
>>> data_value("CC1=CC[C@@]2(CO)[C@@H]([C@@H]1C)[C@H]1CC[C@@H]3[C@@]4(C)CC[C@H](O)C(C)(C)[C@@H]4CC[C@@]3(C)[C@]1(C)C[C@@H]2O")
46.7

# input for lookup
Input C/C(=C\CCc1ccoc1)CC/C=C(\C)CCCN1CCOCC1 . Output TGI: 19.1
